Test: DNDI: Cytotoxicity against human MRC-5 lung fibroblast cells.
Conditions: IC50
Recorded IC50 values for a group of compounds are listed next.

Before answering, review these 5 worked examples.
INSERT INTO assay_data (compound, assay_result) VALUES
  ('Oc1c(/C=N/NC(=S)Nc2cccc(F)c2)cc2c3c1CCCN3CCC2', '> 41.7 µM'),
  ('O=C(c1ccccc1)c1ccc(O)c(O)c1', '> 41.7 µM'),
  ('CC(O)CN1C(=O)c2ccc3c4c(ccc(c24)C1=O)C(=O)N(CC(C)O)C3=O (stereo unspecified)', '> 41.7 µM'),
  ('COc1cccc(C2=NC(c3cccnc3)NC(c3ccccc3O)C2)c1 (stereo unspecified)', '> 20.8 µM'),
  ('Cc1ccc(Cn2cc(CCC(=O)NCCN3CCCC3)c3ccccc32)cc1', '> 20.8 µM');

IC50 for "Cc1cc(C)nc(Nc2nc(N)c3ccccc3n2)n1" ?
6.09 µM

IC50 for "CCOC(=O)c1ccc(NC(=O)Cn2c(C(F)(F)F)nc3ccccc32)cc1" ?
> 41.7 µM

----------
Assay: DNDI: Cytotoxicity against human MRC-5 lung fibroblast cells.
Details: IC50
measured-attribute: IC50

Before answering, review these 4 worked examples.
INSERT INTO assay_data (molecule, measured_attribute, assay_result) VALUES
  ('Cc1cccc(C(=N)NOC(=O)c2ccoc2C)c1', 'IC50', '> 10.4 µM'),
  ('Cc1ccc2c(c1)OCC(CC(=O)NCCN(C)C)N2Cc1ccc(F)cc1 (stereo unspecified)', 'IC50', '> 4.17 µM'),
  ('Cc1cccc(CN2CCN(Cc3c[nH]c4ccccc34)CC2)c1', 'IC50', '> 20.8 µM'),
  ('CC(C)(C)C1CCc2nc(N)nc(N)c2C1 (stereo unspecified)', 'IC50', '> 4.17 µM');

IC50 for COc1ccc(C2(CCNCc3ccc(Cl)cc3)CCOC(C)(C)C2)cc1 (stereo unspecified) ?
> 41.7 µM

IC50 for "Cc1oc2c(O)c(O)ccc2c(=O)c1Oc1ccccc1F" ?
> 41.7 µM

IC50 for "CN1CCc2nc3sc(C(=O)c4ccc(F)cc4)c(N)c3cc2C1" ?
> 41.7 µM

----------
Experiment: DNDI: Cytotoxicity against human MRC-5 lung fibroblast cells.
Conditions: IC50
pIC50: −log10 of the molar value.
measured-attribute: pIC50

Before answering, review these 4 worked examples.
INSERT INTO measurements (molecule, assay_result) VALUES
  ('CCN(CC)CCCCN(CCc1ccccc1)Cc1ccc(O)cc1', '< 4.38'),
  ('COc1ccccc1C1N=C(c2ccc(Cl)cc2)CC(c2ccccc2O)N1 (configuration not stated)', '< 4.38'),
  ('CC1(C)CC2CC(C)(CN2C(=O)COCc2cc(-c3cccs3)on2)C1 (configuration not stated)', '< 4.38'),
  ('[O-][n+]1onc2cc(Cl)c3nonc3c21', '< 5.38');

pIC50 for "O=C(Nc1ccc(Cl)c(-c2nc3ncccc3o2)c1)c1ccco1" ?
< 4.38

pIC50 for "CN(C)c1ccc(/C=C\C=C\c2ccc[n+](C)c2)cc1" ?
< 4.68

pIC50 for "CCCCCc1ccc(-c2ccc(C(=N)N)cc2)cc1" ?
4.81

pIC50 for CNCCC(Sc1ccc(C(F)(F)F)cc1)c1ccccc1 (configuration not stated) ?
< 4.68

pIC50 for "Oc1nncc(N/N=C/c2ccccn2)n1" ?
< 4.68

pIC50 for O=C(NC(c1ccco1)c1cc(Cl)c2cccnc2c1O)c1cccnc1 (configuration not stated) ?
< 4.68

pIC50 for "Nc1ccsc1/C=C/c1cccs1" ?
< 4.38

pIC50 for CC1CC(C)(C)Nc2ccc(OCc3cccc4ccccc34)cc21 (configuration not stated) ?
< 4.68

----------
Assay: DNDI: Cytotoxicity against human MRC-5 lung fibroblast cells.
Conditions: IC50
Recorded IC50 values for a group of compounds are listed next.

INSERT INTO assay_data (compound, assay_result) VALUES
  ('O=C1Nc2ccccc2/C1=C/c1ccccn1', '> 20.8 µM'),
  ('Cc1cc(F)ccc1NC(=O)Nc1ccc(-c2noc(C3CCC3)n2)cc1', '> 41.7 µM');

IC50 for "COc1ccc(O)c(/C=N/Nc2ccccn2)c1" ?
> 20.8 µM

IC50 for "CN(C)CCNC(=O)c1ccc(COc2ccc(Cl)cc2Cl)cc1" ?
> 20.8 µM

IC50 for "CCOC(=O)c1cnc2c(OC)cccc2c1NCCCO" ?
> 41.7 µM

IC50 for CCC1=C(C)c2cc3nc(C(=O)OCc4ccccc4)c(C)c-3c(C)n2C1C (stereo unspecified) ?
> 41.7 µM

----------
Test: DNDI: Cytotoxicity against human MRC-5 lung fibroblast cells.
Settings: IC50
measured-attribute: IC50

IC50 for "S=C(N/N=C(/c1ccccc1)c1ccccn1)Nc1ccccc1" ?
> 4.17 µM

IC50 for CC(C)NCC(O)COc1cccc2c(=O)c3ccccc3sc12 (stereo not given) ?
> 20.8 µM

IC50 for "Oc1c(CN2CCC(Cc3ccccc3)CC2)cc(Cl)c2cccnc12" ?
> 20.8 µM

IC50 for CC(CON1C(N)=NC(N)=NC1(C)C)Cc1cc(Cl)ccc1Cl (stereo not given) ?
> 20.8 µM

IC50 for "O=C(CCc1ccccc1)N/N=C/c1ccc(O)c2ncccc12" ?
> 10.4 µM

IC50 for "CCc1ccccc1-n1c(=O)oc2ccc(Cl)cc2c1=O" ?
> 4.17 µM

IC50 for "COc1ccccc1-c1nc(SCC(=O)c2ccc(O)c(O)c2)n[nH]1" ?
> 41.7 µM

IC50 for "CC(=O)NC1=C(Br)C(=O)c2cccc(NC(C)=O)c2C1=O" ?
7.49 µM

IC50 for "CCc1cc(OCCCCCN2CCNCC2)ccc1Cl" ?
> 20.8 µM

IC50 for "CN(C)C(=S)N/N=C1\Cc2ccccc2C1=O" ?
> 20.8 µM

IC50 for "O=C(COc1ccccc1)N/N=C/c1sc2ccccc2c1O" ?
> 20.8 µM

IC50 for "CC(C)/C(N)=N/OC(=O)c1ccc(I)cc1" ?
> 41.7 µM

----------
Assay: DNDI: Cytotoxicity against human MRC-5 lung fibroblast cells.
Conditions: IC50
pIC50: −log10 of the molar value.
Recorded pIC50 values for a group of compounds are listed next.

Before answering, review these 6 worked examples.
INSERT INTO assay_data (compound, measured_attribute, assay_result) VALUES
  ('O=C(Nc1c2ccccc2nc2ccccc12)c1ccncc1', 'pIC50', 5.24),
  ('Cc1cc(C)c2nc(C)cc(Nc3cccc(O)c3)c2c1', 'pIC50', '< 4.68'),
  ('CC[n+]1c(/C=C/c2ccc(N(C)C)cc2)sc2cc(NC(C)=O)ccc21', 'pIC50', '< 4.68'),
  ('Oc1c(/N=N/c2ccccn2)ccc2ccccc12', 'pIC50', '< 4.68'),
  ('CC(C)(C)C/C(=N\NC(=N)N)c1ccccc1', 'pIC50', '< 4.68'),
  ('CN(C)c1ccc2nc3ccc(=[N+](C)C)cc-3sc2c1', 'pIC50', '< 5.68');

pIC50 for "CCN(CC)c1ccc(/C=N/NC(=O)c2ccncc2)c(O)c1" ?
< 5.38

pIC50 for "Cn1c2ccccc2c2nnc(N/N=C/c3ccccn3)nc21" ?
< 5.98

pIC50 for Cc1[nH]c2ccc(OC(F)(F)F)cc2c1CCNCC1CC=CCC1 (stereo unspecified) ?
5.11

pIC50 for O=C(CC1(O)C(=O)Nc2ccc(I)cc21)c1cccs1 (stereo unspecified) ?
< 4.38

pIC50 for "CCn1c(Cc2nc3ccccc3n2CC)nc2ccccc21" ?
< 4.38

----------
Experiment: DNDI: Cytotoxicity against human MRC-5 lung fibroblast cells.
Details: IC50
Recorded IC50 values for a group of molecules are listed next.

Before answering, review these 5 worked examples.
INSERT INTO measurements (molecule, measured_attribute, assay_result) VALUES
  ('CN1CCN(C2Cc3ccccc3Sc3ccc(N(C)C)cc32)CC1 (centres undefined)', 'IC50', '> 41.7 µM'),
  ('O=S1(=O)Nc2c(ccc3cccnc23)-c2ccccc21', 'IC50', '> 20.8 µM'),
  ('CCN(CC)c1ccc(/C=C/C2=[N+](C)c3ccc(C(=O)OC)cc3C2(C)C)cc1', 'IC50', '3.86 µM'),
  ('O=S(=O)(Nc1cccc2cccnc12)c1ccccc1O', 'IC50', '> 10.4 µM'),
  ('Cc1ccc(Nc2cc(C)nc3c(C)c(C)cc(N)c23)c(C)c1', 'IC50', '> 41.7 µM');

IC50 for O=C(c1ccc(F)cc1)C(CSc1ccc(F)cc1)n1cncn1 (centres undefined) ?
> 41.7 µM

IC50 for "Cc1cccc2cc(-c3ccccc3)c(N3CCNCC3)nc12" ?
> 4.17 µM

IC50 for CCCn1c(=N)n(CC(O)COc2ccc(Cl)cc2Cl)c2ccccc21 (centres undefined) ?
8.79 µM

IC50 for "Oc1c(/N=N/c2ccc3cccc(O)c3n2)ccc2ccccc12" ?
> 20.8 µM

IC50 for "Cc1ccc([S@+]([O-])/C(F)=C\c2ccccn2)cc1" ?
5.57 µM

IC50 for O=C(c1ccc(Cl)cc1)C(CN1CCOCC1)c1ccccc1 (centres undefined) ?
> 20.8 µM

IC50 for "COc1ccc(C2=Nn3c([n+](C)c4cc(C)c(C)cc43)SC2)cc1OC" ?
> 20.8 µM

IC50 for "O=C1/C(=C/c2ccccc2)CCS(=O)(=O)c2ccccc21" ?
> 41.7 µM

IC50 for "Oc1c(CN2CCCCC2)ccc2cccnc12" ?
> 4.17 µM

Data provenance: ChEMBL document CHEMBL2094269
